- System: HT29 sg-Ctrl (RNF43 wildtype)
- Protocol Notes: cell viability activity relative to DMSO (negative = inhibition); higher = more viable cells (less growth inhibition)
- Cond: 5 µM; 96 h
I'd appreciate it if you could label each record using cell viability activity and these ranges: bottom range: < -80%; center range: ≥ -80% and < -60%; top range: ≥ -60%

Ask: Sort COc1ccccc1S(=O)(=O)Nc1ccc2c(c1)CN(C)C(=O)N2 into one of the categories.
Reply: center range

Ask: Band assignment needed for FC(F)c1nc2ccccc2n1-c1nc(N2CCOCC2)nc(N2CCOCC2)n1 please.
Reply: top range

Ask: Category of O=C(CCCCCN1C(=O)c2cccc3cccc(c23)C1=O)NO :
Reply: center range

Ask: In plain terms, what class is Cn1cnc2c(F)c(Nc3ccc(Br)cc3Cl)c(C(=O)NOCCO)cc21 ?
Reply: center range

Ask: Hi there! Could you help me figure out the category for COc1cccc(Nc2ncnn3ccc(CN4CC[C@@H](N)[C@H](O)C4)c23)c1 please?
Reply: top range

Ask: Band of NC1(c2ccc(-c3nc4ccn5c(=O)[nH]nc5c4cc3-c3ccccc3)cc2)CCC1 ?
Reply: top range

Ask: Textbook exercise: identify the category of the molecule given here, CC(C)(C)c1ccc(C(=O)CCCN2CCC(OC(c3ccccc3)c3ccccc3)CC2)cc1 , according to its measured value.
Reply: bottom range

Ask: Dear colleague, I would appreciate it if you could identify the bin for O=C(NC1CCN(CCCCC2(C(=O)NCC(F)(F)F)c3ccccc3-c3ccccc32)CC1)c1ccccc1-c1ccc(C(F)(F)F)cc1 and reply at your convenience.
Reply: bottom range

Ask: Please indicate the class for CCCSc1ccc2[nH]c(NC(=O)OC)nc2c1 based on its cell viability activity.
Reply: center range

###

- Tested on: HT29 RNF43 G659fs (RNF43 659mut, CRISPR-edited)
- Protocol Notes: cell viability activity relative to DMSO (negative = inhibition); higher = more viable cells (less growth inhibition)
- Cond: 5 µM; 96 h
Measured Quantity: cell viability activity (%)
State the answer as a number, implicitly in %.

Ask: Form field - read-out: cell viability activity; system: HT29 RNF43 G659fs (RNF43 659mut, CRISPR-edited); submitted item: Cn1cncc1[C@@](N)(c1ccc(Cl)cc1)c1ccc2c(c1)c(-c1cccc(Cl)c1)cc(=O)n2C
Reply: -30.6

Ask: Requested read-out cell viability activity, target or system HT29 RNF43 G659fs (RNF43 659mut, CRISPR-edited), entry CO[C@@H](C(=O)N1Cc2[nH]nc(NC(=O)c3ccc(N4CCN(C)CC4)cc3)c2C1)c1ccccc1
Reply: -62

Ask: For HT29 RNF43 G659fs (RNF43 659mut, CRISPR-edited), provide cell viability activity of c1cc(-c2cnn3cc(-c4ccc(N5CCNCC5)cc4)cnc23)c2cccnc2c1 please.
Reply: -97.7

Ask: What value of cell viability activity on HT29 RNF43 G659fs (RNF43 659mut, CRISPR-edited) does Nc1nc(=S)c2ncn([C@@H]3O[C@H](CO)[C@@H](O)[C@H]3O)c2[nH]1 have?
Reply: -80.3

Ask: cell viability activity of O=C(c1cn(Cc2cncn2Cc2ccc(Br)cc2)cc1-c1cccc2ccccc12)N1CCOCC1 on HT29 RNF43 G659fs (RNF43 659mut, CRISPR-edited)?
Reply: -42.8

Ask: Lab request: please report cell viability activity under test system HT29 RNF43 G659fs (RNF43 659mut, CRISPR-edited) for Cn1cc(-c2[nH]c3cc(NC(=O)[C@H](N)C4CCCCC4)cc4c3c2C=NNC4=O)cn1
Reply: -54.9

Ask: For HT29 RNF43 G659fs (RNF43 659mut, CRISPR-edited), provide cell viability activity of O=C1NC(=O)[C@@H](c2cn3c4c(cccc24)CCC3)[C@@H]1c1c[nH]c2ccccc12 please.
Reply: -50.8

Ask: Look up cell viability activity with HT29 RNF43 G659fs (RNF43 659mut, CRISPR-edited) for this compound: CN(C)C(=S)SC(=S)N(C)C
Reply: -30.9

Ask: Tell me reported cell viability activity for CC(C)NC(=O)N1CC[C@H](NC2=Nc3cc(F)ccc3N(CC(F)F)c3ccc(Cl)cc32)C1 , tested with HT29 RNF43 G659fs (RNF43 659mut, CRISPR-edited).
Reply: -49.3

###

Would you kindly list cell viability activity for each of these compounds?
- Test system: HT29 RNF43 G659fs (RNF43 659mut, CRISPR-edited)
- Protocol Notes: cell viability activity relative to DMSO (negative = inhibition); higher = more viable cells (less growth inhibition)
- Cond: 5 µM; 96 h
Output should be the measured figure followed by the unit it is expressed in.

Ask: Hello, I am looking for reported cell viability activity with HT29 RNF43 G659fs (RNF43 659mut, CRISPR-edited) for Nc1nccc2c1ncn2C1C=C(CO)C(O)C1O (stereo not given) . Could you help?
Reply: -38.4%

Ask: Under HT29 RNF43 G659fs (RNF43 659mut, CRISPR-edited): cell viability activity value of O=[N+]([O-])c1ccccc1S(=O)(=O)NCC1CCC(CNCC2CCc3ccccc3C2)CC1 (stereo not given) ?
Reply: -63.8%

Ask: Find the measured cell viability activity: item CC(C)Nc1cc(-c2c[nH]c(C(=O)N[C@H](CO)c3cccc(Cl)c3)c2)c(Cl)cn1 , target or system HT29 RNF43 G659fs (RNF43 659mut, CRISPR-edited).
Reply: -71.1%

Ask: Given the entry Cc1nc(-c2cn3c(n2)-c2ccc(-c4cnn(C(C)(C)C(N)=O)c4)cc2OCC3)n(C(C)C)n1 , what cell viability activity was observed with HT29 RNF43 G659fs (RNF43 659mut, CRISPR-edited)?
Reply: -53.2%

Ask: Find the measured cell viability activity: item CCCCCCCCCCCCCCCC[N+](C)(C)CCN(Cc1ccc(OC)cc1)c1ncccn1 , target or system HT29 RNF43 G659fs (RNF43 659mut, CRISPR-edited).
Reply: -95.1%

###

- Tested on: HT29 sg-Ctrl (RNF43 wildtype)
- Protocol Notes: cell viability activity relative to DMSO (negative = inhibition); higher = more viable cells (less growth inhibition)
- Cond: 5 µM; 96 h
Class membership depends on cell viability activity alone; the intervals are low bin = under -70%, mid bin = from -70% up to -30%, high bin = -30% and over

Ask: Hi, small favor: classify C=CC(=O)Nc1cccc(Nc2nc(Nc3ccc(OCCOC)cc3)ncc2F)c1 by its cell viability activity when you get a moment.
Reply: mid bin

Ask: Which cell viability activity band matches C[C@]1(O)C[C@@H](c2nc(-c3ccc4ccc(-c5ccccc5)nc4c3)c3c(N)nccn32)C1 ?
Reply: high bin

Ask: Determine which band this compound sits in: COc1cc(N2CCC(N3CCN(C)CC3)CC2)ccc1Nc1ncc(Cl)c(Nc2ccccc2P(C)(C)=O)n1
Reply: low bin

Ask: Band for the recorded cell viability activity of CCCCc1oc2ccccc2c1C(=O)c1cc(I)c(OCCN(CC)CC)c(I)c1 ?
Reply: low bin

Ask: Textbook exercise: identify the category of the compound given here, Clc1ccc(NN=C(c2ccccc2)c2ccccn2)nc1 , according to its measured value.
Reply: mid bin

Ask: Categorize the following entry: CNC(=O)Nc1ccc(-c2nc(N3CC4CCC(C3)O4)c3cnn(C4CCC5(CC4)OCCO5)c3n2)cc1
Reply: high bin

Ask: Assign a bin to CNC(=O)c1c(F)cccc1Nc1nc(Nc2cc3c(cc2OC)CCN3C(=O)CN(C)C)nc2[nH]ccc12
Reply: mid bin

Ask: Category of Clc1ccc(Cn2c(CN3CCCC3)nc3ccccc32)cc1 :
Reply: high bin

Ask: Which cell viability activity band matches CN1CCc2c(c3ccccc3n2Cc2ccccc2)C1 ?
Reply: mid bin

Ask: Which class does CC(=O)NCC(=O)N1[C@@H]2CC[C@H]1c1ccc(Nc3ncc(C(F)(F)F)c(NC4CCC4)n3)cc12 fall in?
Reply: mid bin

Ask: Tag the class for Nc1nccc2c1ncn2C1C=C(CO)C(O)C1O (stereo not given)
Reply: mid bin

Ask: Band assignment needed for N#CC1(c2ccc(NC(=O)c3cccnc3NCc3ccncc3)cc2)CCCC1 please.
Reply: high bin

Ask: Kindly identify the class of CC(C)[C@H](C(=O)Nc1ccc(C(=O)NO)cc1)c1ccccc1 .
Reply: low bin

Ask: Band assignment needed for c1ccc2c(-c3cnn4cc(-c5ccc(N6CCNCC6)cc5)cnc34)ccnc2c1 please.
Reply: low bin

Ask: Which category fits this record: COc1cc([C@@H]2c3cc4c(cc3[C@@H](O[C@@H]3O[C@@H]5CO[C@@H](C)O[C@H]5[C@H](O)[C@H]3O)[C@H]3COC(=O)[C@H]23)OCO4)cc(OC)c1OP(=O)(O)O
Reply: high bin

Ask: The entry to classify is CC1(C)CC(=O)c2c(C(F)(F)F)nn(-c3ccc(C(N)=O)c(N[C@H]4CC[C@H](O)CC4)c3)c2C1 ; which class holds it?
Reply: low bin

Ask: Categorize the following entry: Cc1cc(Nc2nc(N[C@@H](C)c3ncc(F)cn3)ncc2Cl)[nH]n1
Reply: mid bin

Ask: Hi there! Could you help me figure out the category for CCc1c(O)cc(O)c(C(=O)c2ccc(OCCN3CCOCC3)c(OC)c2)c1CC(=O)N(CCOC)CCOC please?
Reply: low bin

Ask: Input Clc1ccccc1CNCC1CCC(CNCc2ccccc2Cl)CC1 (stereo not given) ; output its category
Reply: high bin

Ask: Pick a category. Item: CCN1CCC[C@H]1CNC(=O)c1c(OC)ccc(Br)c1OC
Reply: mid bin
